Parameter: CC50. Scope: all listed entries.
tested on: Vero 76; assay: Cytotoxicity against monkey Vero 76 cells by neutral red uptake assay; assay type: cell-based; conditions: chlorocebus sabaeus, vero 76

{"columns": ["MOLECULAR_STRING", "TEST_SYSTEM", "UNIT_TAG", "RESULT_MODIFIER", "CC50"],
 "data": [
  ["O[C@@H]1[C@H](O)[C@@H]2C[C@@H]2[C@H]1n1cnc2c(N[C@@H](CC3CC3)C3CC3)nc(Cl)nc21", "Vero 76", "µM", "=", 7.6],
  ["CC(C)(O)[C@@H](Nc1nc(Cl)nc2c1ccn2[C@H]1[C@H](O)[C@H](O)[C@]2(CO)C[C@H]12)C1CC1", "Vero 76", "µM", "=", 63],
  ["OC[C@@]12C[C@@H]1[C@@H](n1cnc3c(NCc4ccccc4)nc(Cl)nc31)[C@H](O)[C@@H]2O", "Vero 76", "µM", ">", 100],
  ["CC(C)[C@@H](Nc1nc(Cl)nc2c1ncn2[C@H]1[C@H](O)[C@H](O)[C@]2(CO)C[C@H]12)C1CC1", "Vero 76", "µM", "=", 24],
  ["O[C@@H]1[C@H](O)[C@@H]2C[C@@H]2[C@H]1n1cnc2c(N[C@H](CC3CC3)C3CC3)nc(Cl)nc21", "Vero 76", "µM", "=", 9.9],
  ["CC(C)[C@@H](Nc1nc(I)nc2c1ncn2[C@H]1[C@H](O)[C@H](O)[C@]2(CO)C[C@H]12)C1CC1", "Vero 76", "µM", "=", 46],
  ["CSc1nc(N[C@@H](C2CC2)C(C)(C)O)c2ccn([C@H]3[C@H](O)[C@H](O)[C@]4(CO)C[C@H]34)c2n1", "Vero 76", "µM", ">", 100],
  ["O[C@@H]1[C@H](O)[C@@H]2C[C@@H]2[C@H]1n1cnc2c(NC(C3CC3)C3CC3)ncnc21", "Vero 76", "µM", ">", 50],
  ["Nc1nc(Cl)nc2c1ncn2[C@H]1[C@H](O)[C@H](O)[C@]2(CO)C[C@H]12", "Vero 76", "µM", "=", 36],
  ["O[C@@H]1[C@H](O)[C@@H]2C[C@@H]2[C@H]1n1cnc2c(NC(C3CC3)C3CC3)nc(Cl)nc21", "Vero 76", "µM", "=", 34],
  ["OC[C@@]12C[C@@H]1[C@@H](n1cnc3c(NC(C4CCC4)C4CCC4)nc(Cl)nc31)[C@H](O)[C@@H]2O", "Vero 76", "µM", "=", 28],
  ["NCCNC(=O)[C@@]12C[C@@H]1[C@@H](n1cnc3c(NC(C4CC4)C4CC4)nc(Cl)nc31)[C@H](O)[C@@H]2O", "Vero 76", "µM", "=", 50],
  ["CC(C)[C@H](Nc1nc(Cl)nc2c1ncn2[C@H]1[C@H](O)[C@H](O)[C@]2(CO)C[C@H]12)C1CC1", "Vero 76", "µM", ">", 50],
  ["OC[C@H]1O[C@@H](n2cnc3c(NC(C4CCC4)C4CCC4)ncnc32)[C@H](O)[C@@H]1O", "Vero 76", "µM", ">", 100]
]}

###

assay: Selectivity index, ratio of CC50 for monkey Vero 76 cells to EC50 for Poliovirus 1 Mahoney; assay type: toxicity; conditions: read-out: Ratio CC50/EC50

{"columns": ["MOLECULAR_STRING", "selectivity ratio"],
 "data": [
  ["CC(C)S(=O)(=O)n1c(N)nc2ccc(/C(=N/O)c3ccccc3)cc21", "> 670"]
]}
